Read-out: sulfotransferase (SULT2A), SULT2A1 (gene 6822)
Experimental Protocol: CLD_SULT2A_48hr: CellzDirect (CLD) Gene Expression Assay for sulfotransferase (SULT2A) at 48 hours (AID 2283710);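 further: hits raise SULT2A1 transcript above the 0.2% DMSO vehicle baseline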
Records with an inconclusive call do not appear. Calls of active or inactive are those of the source. How the source made its calls: active means hit-call score of the fitted dose curve at least 0.9, where 1 is the maximum; inconclusive means response in the unintended direction; inactive means score below 0.9.
In this exercise, the only acceptable responses are active, inactive

Would you please look over these solved cases?
INSERT INTO assay_data (molecule, discrete_label) VALUES
  ('C[C@H]1[C@H](c2ccc(Cl)cc2)SC(=O)N1C(=O)NC1CCCCC1', 'inactive'),
  ('N#Cc1c(Cl)c(Cl)c(Cl)c(C#N)c1Cl', 'inactive'),
  ('COc1cc(OC)nc(NC(=O)NS(=O)(=O)c2cc(NC=O)ccc2C(=O)N(C)C)n1', 'inactive'),
  ('O=S1OCC2C(CO1)C1(Cl)C(Cl)=C(Cl)C2(Cl)C1(Cl)Cl (centres undefined)', 'inactive'),
  ('COP(=S)(OC)Oc1ccc([N+](=O)[O-])cc1', 'inactive'),
  ('CCS(=O)(=O)c1cccnc1S(=O)(=O)NC(=O)Nc1nc(OC)cc(OC)n1', 'inactive'),
  ('COC(=O)c1ccccc1S(=O)(=O)NC(=O)Nc1nc(C)nc(OC)n1', 'inactive'),
  ('COP(=O)(OC)OC=C(Cl)Cl', 'inactive'),
  ('CCc1ccc(C(=O)NN(C(=O)c2cc(C)cc(C)c2)C(C)(C)C)cc1', 'inactive'),
  ('Clc1ccccc1-c1nnc(-c2ccccc2Cl)nn1', 'inactive');

### Prompt Entry Cc1cc(C)nc(NC(=O)NS(=O)(=O)c2ccccc2C(=O)OC2COC2)n1 : call = ?
### Response inactive

### Prompt Entry O=[N+]([O-])c1c(Cl)c(Cl)c(Cl)c(Cl)c1Cl : call = ?
### Response inactive

### Prompt Entry CC1(c2ccc(Oc3ccccc3)cc2)OC(=O)N(Nc2ccccc2)C1=O (centres undefined) : call = ?
### Response active

### Prompt Entry CC(C)(C)C(O)C(Oc1ccc(Cl)cc1)n1cncn1 (centres undefined) : call = ?
### Response active

### Prompt Entry O=[N+]([O-])/N=C1\NCCN1Cc1ccc(Cl)nc1 : call = ?
### Response inactive

* * *

Experimental Protocol: APR_HepG2_CellLoss_72hr: Apredica 72-hour HepG2 Assay for Cell Loss (AID 2282915)
Measurement Conditions: high-content imaging
Active and inactive are the calls of the source. How the source made its calls: active means hit-call score of the fitted dose curve at least 0.9, where 1 is the maximum; inactive means score below 0.9.
In this exercise, the only acceptable responses are active, inactive

Would you please look over these solved cases?
INSERT INTO results (molecule, discrete_label) VALUES
  ('CCOc1nc(NC)nc(NC(=O)NS(=O)(=O)c2ccccc2C(=O)OC)n1', 'inactive'),
  ('CNC(=O)CSP(=S)(OC)OC', 'inactive'),
  ('O=S(=O)(O)C(F)(F)C(F)(F)C(F)(F)C(F)(F)C(F)(F)C(F)(F)C(F)(F)C(F)(F)F', 'active');

### Prompt Entry Cc1[nH]c(=O)n(C(C)(C)C)c(=O)c1Cl : call = ?
### Response inactive

### Prompt Entry [2H]C1([2H])[n+]2ccccc2-c2cccc[n+]2C1([2H])[2H] : call = ?
### Response active

* * *

Experimental Protocol: ATG_EGR_CIS: Attagene CIS-FACTORIAL HepG2 Assay for human Early Growth Response 1 (EGR1) (AID 2282938)
Measurement Conditions: HepG2 Attagene CIS-FACTORIAL EGR reporter mRNA; actives raise or lower the signal
Active and inactive are the calls of the source. Rule for the calls: active = hit-call score of the fitted dose curve at least 0.9, where 1 is the maximum; inactive = score below 0.9.
In this exercise, the only acceptable responses are active, inactive

Would you please look over these solved cases?
INSERT INTO assay_data (compound, discrete_label) VALUES
  ('CC[C@H](C)[C@H]1O[C@]2(C=C[C@@H]1C)C[C@@H]1C[C@@H](C/C=C(\C)[C@@H](O[C@H]3C[C@H](OC)[C@@H](O[C@H]4C[C@H](OC)[C@@H](O)[C@H](C)O4)[C@H](C)O3)[C@@H](C)/C=C/C=C3\CO[C@@H]4[C@H](O)C(C)=C[C@@H](C(=O)O1)[C@]34O)O2 (tested in a mixture with another compound)', 'inactive'),
  ('CC(C)OC(=O)Nc1cccc(Cl)c1', 'active'),
  ('CCc1ccc(C(=O)NN(C(=O)c2cc(C)cc(C)c2)C(C)(C)C)cc1', 'active'),
  ('C[C@H]1[C@H](c2ccc(Cl)cc2)SC(=O)N1C(=O)NC1CCCCC1', 'active');

### Prompt Entry O=C(O)C(F)(F)C(F)(F)C(F)(F)C(F)(F)C(F)(F)C(F)(F)C(F)(F)F : call = ?
### Response inactive

### Prompt Entry CC(C)(C)C(O)/C(=C\c1ccc(Cl)cc1Cl)n1cncn1 (stereo not drawn) : call = ?
### Response inactive

### Prompt Entry CCCN(CCOc1c(Cl)cc(Cl)cc1Cl)C(=O)n1ccnc1 : call = ?
### Response inactive

### Prompt Entry O=C(Nc1ccccc1)Nc1cnns1 : call = ?
### Response active
